Tested on: HepG2 cells
assay: Measurement of cholesterol synthesis inhibitory ability (cholesterol content in cell lysates, Amplex red)
Type: cell-based
experimental.setup: 100 uM compound, 24 hours, HepG2; lower value = stronger cholesterol synthesis inhibition; hydrochloride
assay.endpoint: Cholesterol (100 uM) Aver.
In your answer, state the number alone without any accompanying words.

Given COc1ccc(N=C(NCCc2cccs2)NC(=N)N)cc1.Cl , state its recorded Cholesterol (100 uM) Aver..
67.3

# get_value(readout='Cholesterol (100 uM) Aver.', item= CN=C(NCCc1cccs1)NC(=N)N.Cl )
49.29

For CCCCN=C(NCCc1cccs1)NC(=N)N.Cl , what is its reported Cholesterol (100 uM) Aver.?
32.66

Reported Cholesterol (100 uM) Aver. for COc1ccc(OC)c(N=C(NCCc2cccs2)NC(=N)N)c1.Cl [Example 16] : what is it?
85.0

For the molecule shown here, COc1ccc(OC)c(N=C(NCCc2cccs2)NC(=N)N)c1.Cl [Example 31] , give the reported Cholesterol (100 uM) Aver..
75.67

---

Test system: HepG2 cells
assay: Measurement of gluconeogenesis inhibitory ability (14C-lactate, glucose formed in cells)
Assay type: cell-based
experimental.setup: 100 uM compound, 24 hours, HepG2; lower value = stronger gluconeogenesis inhibition; 100 µM
Given measured Gluconeogenesis inhibition (100 uM) Aver., output fulfilled if it is greater than or equal to 30 and not fulfilled if not.

Entry CN=C(NCCc1cccs1)NC(=N)N.Cl [Example 12] : is its Gluconeogenesis inhibition (100 uM) Aver. no less than 30?
not fulfilled

Could you verify whether the entry CCCCN=C(NCCc1cccs1)NC(=N)N.Cl [Example 26] shows Gluconeogenesis inhibition (100 uM) Aver. of no less than 30?
fulfilled

Is the recorded value of Gluconeogenesis inhibition (100 uM) Aver. equal to or greater than 30 for this compound? COc1ccc(N=C(NCCc2cccs2)NC(=N)N)cc1.Cl [Example 30]
fulfilled

Please tell me: is the compound CN=C(NCCc1cccs1)NC(=N)N.Cl [Example 11] at or over 30 in terms of Gluconeogenesis inhibition (100 uM) Aver.?
not fulfilled

State whether the measured Gluconeogenesis inhibition (100 uM) Aver. reaches 30, counting equality as reaching it, for CN=C(NCCc1cccs1)NC(=N)N.Cl [Example 10]
not fulfilled

---

Tested on: HepG2 cells
assay: Measurement of gluconeogenesis inhibitory ability (14C-lactate, glucose formed in cells)
Type: cell-based
experimental.setup: 100 uM compound, 24 hours, HepG2; lower value = stronger gluconeogenesis inhibition
assay.endpoint: Gluconeogenesis inhibition (100 uM) Aver.
# output: bare number, no unit

Give its Gluconeogenesis inhibition (100 uM) Aver. value. Item: COc1cc(N=C(NCCc2cccs2)NC(=N)N)cc(OC)c1OC.Cl
95.56

If you can, please state the reported Gluconeogenesis inhibition (100 uM) Aver. value of CCc1ccccc1N=C(NCCc1cccs1)NC(=N)N.Cl .
74.23

What measured Gluconeogenesis inhibition (100 uM) Aver. goes with Cl.N=C(N)NC(=NC1CCCC1)NCCc1cccs1 ?
97.66

What does the record list as Gluconeogenesis inhibition (100 uM) Aver. for Cl.N=C(N)NC(=Nc1ccccc1)NCCc1cccs1 ?
87.36

Need Gluconeogenesis inhibition (100 uM) Aver. of CCCCCN=C(NCCc1cccs1)NC(=N)N.Cl , thanks.
2.96

---

Test system: HepG2 cells
assay: Measurement of gluconeogenesis inhibitory ability (14C-lactate, glucose formed in cells)
Format: cell-based
experimental.setup: 100 uM compound, 24 hours, HepG2; lower value = stronger gluconeogenesis inhibition
Method: 2 mM metformin was used as a comparative compound for each of the plates (control group). HepG2 cells (ATCC: American Type Culture Collection) were cultured in 10% serum-containing high glucose media, transferred to no serum-containing low glucose media (DMEM (Gibco), FBS (Gibco)), and then treated with 100 μM of each of the compounds for 24 hours. […] Then, the cells were neutralized with 1N HCl, and the content of glucose formed in the cells was measured with a liquid scintillation counter. […]
We use 70 as the dividing line for Gluconeogenesis inhibition (100 uM) Aver.: on or above the line is criterion met, below is criterion not met.

Threshold query (Gluconeogenesis inhibition (100 uM) Aver. >= 70) on Cl.N=C(N)NC(=Nc1cccc(Br)c1)NCCc1cccs1
criterion not met

Determine whether measured Gluconeogenesis inhibition (100 uM) Aver. meets or exceeds 70 for CCCN=C(NCCc1cccs1)NC(=N)N.Cl
criterion met

Is reported Gluconeogenesis inhibition (100 uM) Aver. greater than or equal to 70 here: COc1ccc(CN=C(NCCc2cccs2)NC(=N)N)cc1.Cl
criterion met

// inclusive: Gluconeogenesis inhibition (100 uM) Aver. at least 70? input: CC(C)CN=C(NCCc1cccs1)NC(=N)N.Cl
criterion met
